Reported binding signal is given for each of the following binders.
# TESTED TARGET: T1, RBFOX1 RRM RbFoxmut (Fox-RRM*) (Homo sapiens, UniProt Q9NWB1 109-208, R118D;E147R;N151S;E152T)
# T1 sequence: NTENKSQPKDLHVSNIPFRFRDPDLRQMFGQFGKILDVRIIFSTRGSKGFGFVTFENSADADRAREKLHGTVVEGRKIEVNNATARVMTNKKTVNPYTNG
# EXPERIMENT: EMSA; HiTS-Eq, 1 nM pool, 10 min; buffer printed only for the single-RNA assays: 10 mM Tris pH 7.5, 150 mM NaCl, 3.4 mM EDTA, 0.001% NP-40, 30 C
# CONDITION SET: tags: His6 N-terminal (pET28a); label: 5' 32P
Over roughly 16,000 sequences, “ka relative to ugcaugu” has its median near 0.096; the highest 2% begin near 0.35. This is one part of a sample in which the highest values are shown more often than they occur.

Ask: Give its binding signal value. Item: UGCUAUC (DNA:RNA) RNA: GGGAGACCGGAAUUCAGAUUGUCCUGCUAUCUUAAAUCCCGUCGUAGCCACCA DNA 1: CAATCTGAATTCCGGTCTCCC DNA 2: TGGTGGCTACGACGGGATT
Reply: 0.255 KA relative to UGCAUGU

Ask: Give its binding signal value. Item: CUGUAUG (DNA:RNA) RNA: GGGAGACCGGAAUUCAGAUUGUCCCUGUAUGUUAAAUCCCGUCGUAGCCACCA DNA 1: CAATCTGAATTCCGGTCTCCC DNA 2: TGGTGGCTACGACGGGATT
Reply: 1.11 KA relative to UGCAUGU

New cases:
Ask: Give its binding signal value. Item: UGUAUGU (DNA:RNA) RNA: GGGAGACCGGAAUUCAGAUUGUCCUGUAUGUUUAAAUCCCGUCGUAGCCACCA DNA 1: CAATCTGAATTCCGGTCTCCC DNA 2: TGGTGGCTACGACGGGATT
Reply: 0.914 KA relative to UGCAUGU

Ask: Give its binding signal value. Item: UGCUAUG (DNA:RNA) RNA: GGGAGACCGGAAUUCAGAUUGUCCUGCUAUGUUAAAUCCCGUCGUAGCCACCA DNA 1: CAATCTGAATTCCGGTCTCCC DNA 2: TGGTGGCTACGACGGGATT
Reply: 0.863 KA relative to UGCAUGU

Ask: Give its binding signal value. Item: GUCAUGU (DNA:RNA) RNA: GGGAGACCGGAAUUCAGAUUGUCCGUCAUGUUUAAAUCCCGUCGUAGCCACCA DNA 1: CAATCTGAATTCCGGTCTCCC DNA 2: TGGTGGCTACGACGGGATT
Reply: 0.288 KA relative to UGCAUGU

Ask: Give its binding signal value. Item: CGGAUGA (DNA:RNA) RNA: GGGAGACCGGAAUUCAGAUUGUCCCGGAUGAUUAAAUCCCGUCGUAGCCACCA DNA 1: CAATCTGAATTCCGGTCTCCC DNA 2: TGGTGGCTACGACGGGATT
Reply: 0.235 KA relative to UGCAUGU

Ask: Give its binding signal value. Item: UUUCGAG (DNA:RNA) RNA: GGGAGACCGGAAUUCAGAUUGUCCUUUCGAGUUAAAUCCCGUCGUAGCCACCA DNA 1: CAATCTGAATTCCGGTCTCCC DNA 2: TGGTGGCTACGACGGGATT
Reply: 0.107 KA relative to UGCAUGU

Ask: Give its binding signal value. Item: CUAUAGG (DNA:RNA) RNA: GGGAGACCGGAAUUCAGAUUGUCCCUAUAGGUUAAAUCCCGUCGUAGCCACCA DNA 1: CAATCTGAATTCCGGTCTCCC DNA 2: TGGTGGCTACGACGGGATT
Reply: 0.0751 KA relative to UGCAUGU

Ask: Give its binding signal value. Item: GAACGUG (DNA:RNA) RNA: GGGAGACCGGAAUUCAGAUUGUCCGAACGUGUUAAAUCCCGUCGUAGCCACCA DNA 1: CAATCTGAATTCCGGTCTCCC DNA 2: TGGTGGCTACGACGGGATT
Reply: 0.226 KA relative to UGCAUGU

Ask: Give its binding signal value. Item: UGAUGGA (DNA:RNA) RNA: GGGAGACCGGAAUUCAGAUUGUCCUGAUGGAUUAAAUCCCGUCGUAGCCACCA DNA 1: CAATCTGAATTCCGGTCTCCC DNA 2: TGGTGGCTACGACGGGATT
Reply: 0.0611 KA relative to UGCAUGU

Ask: Give its binding signal value. Item: CCCAAUU (DNA:RNA) RNA: GGGAGACCGGAAUUCAGAUUGUCCCCCAAUUUUAAAUCCCGUCGUAGCCACCA DNA 1: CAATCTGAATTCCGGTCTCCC DNA 2: TGGTGGCTACGACGGGATT
Reply: 0.0634 KA relative to UGCAUGU

Ask: Give its binding signal value. Item: CUGUGUA (DNA:RNA) RNA: GGGAGACCGGAAUUCAGAUUGUCCCUGUGUAUUAAAUCCCGUCGUAGCCACCA DNA 1: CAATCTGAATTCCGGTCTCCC DNA 2: TGGTGGCTACGACGGGATT
Reply: 0.281 KA relative to UGCAUGU

Ask: Give its binding signal value. Item: GGUCAUC (DNA:RNA) RNA: GGGAGACCGGAAUUCAGAUUGUCCGGUCAUCUUAAAUCCCGUCGUAGCCACCA DNA 1: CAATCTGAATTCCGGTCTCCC DNA 2: TGGTGGCTACGACGGGATT
Reply: 0.152 KA relative to UGCAUGU

Ask: Give its binding signal value. Item: GUCCUGU (DNA:RNA) RNA: GGGAGACCGGAAUUCAGAUUGUCCGUCCUGUUUAAAUCCCGUCGUAGCCACCA DNA 1: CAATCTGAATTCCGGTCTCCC DNA 2: TGGTGGCTACGACGGGATT
Reply: 0.135 KA relative to UGCAUGU

Ask: Give its binding signal value. Item: UGGAUGA (DNA:RNA) RNA: GGGAGACCGGAAUUCAGAUUGUCCUGGAUGAUUAAAUCCCGUCGUAGCCACCA DNA 1: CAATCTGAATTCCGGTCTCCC DNA 2: TGGTGGCTACGACGGGATT
Reply: 0.401 KA relative to UGCAUGU

Ask: Give its binding signal value. Item: CGCUAUG (DNA:RNA) RNA: GGGAGACCGGAAUUCAGAUUGUCCCGCUAUGUUAAAUCCCGUCGUAGCCACCA DNA 1: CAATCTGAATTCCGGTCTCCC DNA 2: TGGTGGCTACGACGGGATT
Reply: 0.184 KA relative to UGCAUGU

Ask: Give its binding signal value. Item: GUGAACG (DNA:RNA) RNA: GGGAGACCGGAAUUCAGAUUGUCCGUGAACGUUAAAUCCCGUCGUAGCCACCA DNA 1: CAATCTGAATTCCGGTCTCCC DNA 2: TGGTGGCTACGACGGGATT
Reply: 0.538 KA relative to UGCAUGU
